Attribution: patent US8399452B2

tested system: histone deacetylase (HDAC Enzyme)
method description: Inhibition of Histone Deacetylase Enzymatic Activity (Boc-Lys(Ac)-AMC, Fluor-de-Lys developer)
Format: biochemical
condition label: Table 10; read-out: HDAC Inhibition (IC50 μM) HDAC Enzyme
endpoint: IC50

These recorded examples may help you get a feel for the data.
- structure smiles: "O=C(CCCCCON=C1c2ccccc2CCc2ccccc21)NO"
  tested system: "histone deacetylase (HDAC Enzyme)"
  endpoint value: "0.1 to 1 µM"
- structure smiles: "O=C(CCCCCCC(=O)N1c2ccccc2C=Cc2ccccc21)NO"
  tested system: "histone deacetylase (HDAC Enzyme)"
  endpoint value: "0.1 to 1 µM"
- structure smiles: "O=C(CCCCCCON=C1c2ccccc2CCc2ccccc21)NO"
  tested system: "histone deacetylase (HDAC Enzyme)"
  endpoint value: "0.1 to 1 µM"
- structure smiles: "O=C(CCCN1c2ccccc2C=Cc2ccccc21)NO"
  tested system: "histone deacetylase (HDAC Enzyme)"
  endpoint value: "1 to 10 µM"
- structure smiles: "O=C(NO)c1ccc(CNC(c2ccccc2)c2ccccc2)cc1"
  tested system: "histone deacetylase (HDAC Enzyme)"
  endpoint value: "< 0.05 µM"
- structure smiles: "CN1C(=O)CN=C(c2ccc(C(=O)NO)cc2)c2ccccc21"
  tested system: "histone deacetylase (HDAC Enzyme)"
  endpoint value: "0.1 to 1 µM"
- structure smiles: "O=C(NO)c1cnc(N2C[C@H]3C[C@@]3(c3ccc(C(F)(F)F)cc3)C2)nc1"
  tested system: "histone deacetylase (HDAC Enzyme)"
  endpoint value: "0.1 to 1 µM"
- structure smiles: "O=C(NO)c1cnc(N2CCn3c(nnc3-c3ccccc3)C2)nc1"
  tested system: "histone deacetylase (HDAC Enzyme)"
  endpoint value: "< 0.05 µM"
- structure smiles: "O=C(NO)c1cccc(COC2c3ccccc3CCc3ccccc32)c1"
  tested system: "histone deacetylase (HDAC Enzyme)"
  endpoint value: "0.1 to 1 µM"
- structure smiles: "O=C(CCCCCN1c2ccccc2CCc2ccccc21)NO"
  tested system: "histone deacetylase (HDAC Enzyme)"
  endpoint value: "< 0.05 µM"

Batch request: IC50 per item, same order as input.
1. O=C(CCCCCCN1c2ccccc2Oc2ccccc2S1(=O)=O)NO
2. O=C(NO)c1ccc(OCCN2C(=O)CCOc3ccccc32)cc1
3. O=C(NO)c1ccc(OCCN2C(=O)c3ccccc3Oc3ccccc32)cc1
4. O=C(/C=C/c1ccc(CN2C(=O)c3cccnc3N(C3CC3)c3ccccc32)cc1)NO
5. O=C(NO)c1ccc(CN2Cc3ccccc3Oc3ccccc32)cc1
6. O=C(CCCCCCN1Cc2ccccc2Oc2ccccc21)NO

1. 0.1 to 1 µM
2. < 0.05 µM
3. < 0.05 µM
4. < 0.05 µM
5. < 0.05 µM
6. 0.1 to 1 µM

Batch of 2 compounds: report IC50 for each.
1. O=C(CCCCCCn1c(=O)c2ccccc2c2ccccc21)NO
2. O=C(NO)c1cccc(CN2c3ccccc3Oc3ccccc32)c1

1. < 0.05 µM
2. 1 to 10 µM

Would you mind giving IC50 for every compound in the list below?
1. CN1CCc2[nH]c3ccc(C(=O)NO)cc3c2C1
2. O=C(Cc1ccc(CN2c3ccccc3C=Cc3ccccc32)cc1)NO
3. O=C(CCCCN1c2ccccc2C=Cc2ccccc21)NO
4. O=CN(O)CCCCCCN1C(=O)c2ccccc2Oc2ccccc21
5. O=C(CCn1cc(CN2C(=O)c3ccccc3Oc3ccccc32)nn1)NO
6. O=C(/C=C/c1ccc(CN2C(=O)CN=C(c3ccccc3)c3ccccc32)cc1)NO

1 to 10 µM
0.1 to 1 µM
0.1 to 1 µM
< 0.05 µM
0.1 to 1 µM
0.05 to 0.1 µM

----------
tested system: histone deacetylase (HDAC Enzyme)
method description: Inhibition of Histone Deacetylase Enzymatic Activity (Boc-Lys(Ac)-AMC, Fluor-de-Lys developer)
Format: biochemical
condition label: Table 10; read-out: HDAC Inhibition (IC50 μM) HDAC Enzyme
endpoint: IC50

- structure smiles: "O=C(Cc1ccc(CN2C(=O)c3ccccc3Oc3ccccc32)cc1)NO"
  IC50: "0.1 to 1 µM"
- structure smiles: "O=C(NO)c1ccc(ON=C2c3ccccc3CCc3ccccc32)cc1"
  IC50: "0.1 to 1 µM"
- structure smiles: "O=C(/C=C/c1ccc(CN2c3ccccc3C=Cc3ccccc32)cc1)NO"
  IC50: "0.05 to 0.1 µM"
- structure smiles: "O=C(NO)c1ccc(Cn2c(-c3ccccc3)cc3ccccc32)cc1"
  IC50: "0.1 to 1 µM"
- structure smiles: "O=C(NO)c1cnc(N2C[C@H]3C[C@@]3(c3cccc(C(F)(F)F)c3)C2)nc1"
  IC50: "0.1 to 1 µM"

Okay, now this molecule:
Give the measured IC50 of O=C(NO)c1cc2c(cn1)[nH]c1ccccc12 . 1 to 10 µM

----------
Exercise: state measured IC50 for each of the compounds provided.
tested system: histone deacetylase (HDAC Enzyme)
method description: Inhibition of Histone Deacetylase Enzymatic Activity (Boc-Lys(Ac)-AMC, Fluor-de-Lys developer)
Type: biochemical
condition label: Table 10; read-out: HDAC Inhibition (IC50 μM) HDAC Enzyme

- compound: "O=C(NO)c1ccc(OCCN2C(=O)c3ccccc3Oc3ccccc32)cc1F"
  IC50: "0.05 to 0.1 µM"
- compound: "O=C(NO)c1cnc(OC(c2ccc(F)cc2)c2ccc(F)cc2)nc1"
  IC50: "0.1 to 1 µM"
- compound: "O=C(NO)c1ccc(OCCN2C(=O)c3ccccc3Oc3ccccc32)c(F)c1"
  IC50: "0.05 to 0.1 µM"
- compound: "O=C(NO)c1ccc(Cn2c(=O)c3ccccc3c3ccccc32)cc1"
  IC50: "< 0.05 µM"
- compound: "O=C(NO)c1cnc(ON=C(c2ccccc2)c2ccccc2)nc1"
  IC50: "1 to 10 µM"
- compound: "O=C(CCCCCCCN1C(=O)CN=C(c2ccccc2)c2ccccc21)NO"
  IC50: "0.1 to 1 µM"
- compound: "O=C(NO)c1ccc(OCCN2C(=O)c3cc(F)ccc3Oc3ccccc32)cc1"
  IC50: "< 0.05 µM"
- compound: "O=C(NO)c1ccc(/C=C/CN2C(=O)c3ccccc3Oc3ccccc32)cc1"
  IC50: "0.05 to 0.1 µM"

Below are some compounds; for each one, tell me its IC50.
1. O=C(NO)c1cccc(OCCN2C(=O)c3ccccc3Oc3ccccc32)c1
2. O=C(NO)c1ccc(CN(c2ccccc2)c2ccccc2)cc1
3. O=C(NO)c1cccc(CN(c2ccccc2)c2ccccc2)c1

["0.1 to 1 µM", "0.1 to 1 µM", "1 to 10 µM"]

I'm hoping you can list IC50 for every compound here, please.
1. O=C(/C=C/c1ccc2c(c1)NC(=O)CN=C2c1ccccc1)NO
2. O=C(CCCCCCN1c2ccccc2C=Cc2ccccc21)NO
3. O=C(NO)c1cccc(CN2c3ccccc3Sc3ccccc32)c1

1. 0.05 to 0.1 µM
2. < 0.05 µM
3. 0.1 to 1 µM

Provide the reported IC50 of each entry below, same order.
1. O=C(NO)c1ccc(OCCN2C(=O)c3ccccc3Oc3cc(Cl)ccc32)cc1
2. O=C(NO)c1cnc(C2c3ccccc3C=Cc3ccccc32)nc1
3. CN1C(=O)CN=C(c2ccccc2)c2ccc(CCC(=O)NO)cc21
4. O=C(CCCCCN1C(=O)c2ccccc2Oc2ccccc21)NO
5. O=C(NO)c1cnc(NC2c3ccccc3C=C(F)c3ccccc32)nc1 (stereo not drawn)
6. O=C(NO)c1ccc(Cn2c3c(c4ccccc42)CCCCCC3)cc1
7. O=C(NO)c1cnc(N2CCCN(C(=O)OCc3ccccc3)CC2)nc1
8. O=C(NO)c1ccc(CNC2c3ccccc3CCc3ccccc32)cc1

1: < 0.05 µM; 2: 0.1 to 1 µM; 3: 0.1 to 1 µM; 4: < 0.05 µM; 5: < 0.05 µM; 6: 0.1 to 1 µM; 7: 0.05 to 0.1 µM; 8: < 0.05 µM

I have 5 compounds here; please give me IC50 for each one.
1. O=C(C=C1c2ccccc2CCc2ccccc21)NO
2. CN(c1ncc(C(=O)NO)cn1)C1c2ccccc2CCc2ccccc21
3. O=C(CCCCCN1C(=O)c2cccnc2N(C2CC2)c2ccccc21)NO
4. O=C(NO)c1cnc(N2C[C@@H]3C[C@]3(c3ccc(Cl)c(Cl)c3)C2)nc1
5. CN1C(=O)CN=C(c2ccccc2)c2ccc(/C=C/C(=O)NO)cc21

1: 1 to 10 µM; 2: < 0.05 µM; 3: 0.1 to 1 µM; 4: 0.1 to 1 µM; 5: 0.1 to 1 µM

Please supply IC50 for each of the following items, keeping them in order.
1. O=C(CCCCCCN1C(=O)c2ccccc2Sc2ccccc21)NO
2. O=C(CCCCCCC(=O)NC1c2ccccc2C=Cc2ccccc21)NO
3. O=C(CCCCCCCON=C1c2ccccc2CCc2ccccc21)NO
4. O=C(CCCCCN1C(=O)c2ccccc2N(C2CC2)c2ccccc21)NO
5. O=C(CCCCON=C1c2ccccc2CCc2ccccc21)NO

1. < 0.05 µM
2. 0.1 to 1 µM
3. 0.1 to 1 µM
4. 0.1 to 1 µM
5. 0.1 to 1 µM

What IC50 value was documented for this compound, O=C(/C=C/c1ccc(CNC2c3ccccc3CCc3ccccc32)cc1)NO ? 0.05 to 0.1 µM
